Data origin: paper PMC10384572

Tested on: Murine macrophages J774A.1 (ATCC® TIB-67)
Assay: In vitro cytotoxicity against murine macrophages (alamarBlue)
Format: cell-based
Conditions: murine macrophages J774A.1, 24 h, mean ± SD
Description: Murine macrophages from the J774A.1 cell line (ATCC® TIB-67) were maintained in Dulbecco’s Modified Eagle’s medium (DMEM) in order to evaluate the toxicity of the compounds. […] For the cytotoxicity assays, the same protocol as detailed in Section 4.4 above was used. Murine macrophages were incubated with serial dilutions of the evaluated compounds at 37 °C in a 5% CO2 atmosphere over 24 h. The obtained data were analyzed as described in the previous section in order to calculate the CC50. […]
REPORTED_ENDPOINT: CC50

For record COc1c(C)cc(O)cc1C/C=C(\C)CC(=O)/C=C(\C)CCCC(C)=O [Cystomexicone B (6), cystomexicone B] the listed CC50 is > 500 µM

###

Tested on: N. fowleri ATCC® 30808
Experiment: In vitro activity against N. fowleri trophozoites (alamarBlue), strain ATCC 30808
Format: cell-based, Naegleria fowleri
Conditions: Naegleria fowleri, ATCC30808; N. fowleri trophozoites, 48 h, alamarBlue, mean ± SD
Entries and their measured IC90 follow.
Just the number in µM, nothing appended.

Example entries and their recorded answers appear below.
• COc1c(C)cc(O)cc1C/C=C(\C)CC(=O)C/C(C)=C/CC[C@@H](C)C(=O)/C=C/C(C)(C)O = 58
• COc1c(C)cc(O)cc1C/C=C(\C)CC(=O)/C=C(\C)CCC[C@@H](C)C(=O)/C=C/C(C)(C)O = 64.9
• COc1c(C)cc(O)cc1C/C=C(\C)CC(=O)/C=C(\C)CCCC(C)=O = 206

For record COc1c(C)cc(O)cc1C/C=C(\C)CC(=O)/C=C(/C)CCC[C@@H](C)C(=O)/C=C/C(C)(C)O the listed IC90 is 55.3

###

Assay: In vitro cytotoxicity against murine macrophages (alamarBlue)
Format: cell-based
Conditions: mouse, J774A.1 murine macrophages (ATCC TIB-67), murine macrophages J774A.1, 24 h, mean ± SD
REPORTED_ENDPOINT: CC50 at 24 h (µM)
Just the number in µM, nothing appended.

• COc1c(C)cc(O)cc1C/C=C(\C)CC(=O)/C=C(/C)CCC[C@@H](C)C(=O)/C=C/C(C)(C)O [6Z-1′Methoxyamentadione (2), 6Z-1′-methoxyamentadione] = 26.6

// next item, CC50 at 24 h requested
For record COc1c(C)cc(O)cc1C/C=C(\C)CC(=O)C/C(C)=C/CC[C@@H](C)C(=O)/C=C/C(C)(C)O [Gongolarone B (1), gongolarone B] the listed CC50 at 24 h is 25.6

###

Test: In vitro cytotoxicity against murine macrophages (alamarBlue)
Format: cell-based
Conditions: mouse, J774A.1 murine macrophages (ATCC TIB-67), murine macrophages J774A.1, 24 h, mean ± SD
REPORTED_ENDPOINT: CC50 at 24 h (µM)
Just the number in µM, nothing appended.

- CCCCCCCCCCCCCCCCOP(=O)([O-])OCC[N+](C)(C)C [Miltefosine, miltefosine, reference compound]: 128

// next item, CC50 at 24 h requested
For record COc1c(C)cc(O)cc1C/C=C(\C)CC(=O)/C=C(\C)CCC[C@@H](C)C(=O)/C=C/C(C)(C)O [1′Methoxyamentadione (3), 1′-methoxyamentadione] the listed CC50 at 24 h is 26.2

###

Test system: N. fowleri ATCC® 30808 trophozoites
Experiment: Chromatin condensation detection (Hoechst 33342/propidium iodide)
Type: cell-based, Naegleria fowleri
Conditions: IC90 of compound, 24 h
REPORTED_ENDPOINT: Apoptotic phase suggested by Hoechst/PI staining

- COc1c(C)cc(O)cc1C/C=C(\C)CC(=O)/C=C(\C)CCCC(C)=O: early apoptotic phase
- COc1c(C)cc(O)cc1C/C=C(\C)CC(=O)C/C(C)=C/CC[C@@H](C)C(=O)/C=C/C(C)(C)O: late apoptotic phase
- COc1c(C)cc(O)cc1C/C=C(\C)CC(=O)/C=C(\C)CCC[C@@H](C)C(=O)/C=C/C(C)(C)O: early apoptotic phase
- COc1c(C)cc(O)cc1C/C=C(\C)CC(=O)/C=C(/C)CCC[C@@H](C)C(=O)/C=C/C(C)(C)O: late apoptotic phase

###

Assay: In vitro cytotoxicity against murine macrophages (alamarBlue)
Assay type: cell-based
Conditions: mouse, J774A.1 murine macrophages (ATCC TIB-67), murine macrophages J774A.1, 24 h, mean ± SD
REPORTED_ENDPOINT: CC90 at 24 h (µM)
Just the number in µM, nothing appended.

- COc1c(C)cc(O)cc1C/C=C(\C)CC(=O)/C=C(\C)CCC[C@@H](C)C(=O)/C=C/C(C)(C)O [1′Methoxyamentadione (3), 1′-methoxyamentadione]: 68.7
- COc1c(C)cc(O)cc1C/C=C(\C)CC(=O)/C=C(/C)CCC[C@@H](C)C(=O)/C=C/C(C)(C)O [6Z-1′Methoxyamentadione (2), 6Z-1′-methoxyamentadione]: 67.2

For record COc1c(C)cc(O)cc1C/C=C(\C)CC(=O)C/C(C)=C/CC[C@@H](C)C(=O)/C=C/C(C)(C)O [Gongolarone B (1), gongolarone B] the listed CC90 at 24 h is 72.9

###

Assay: In vitro cytotoxicity against murine macrophages (alamarBlue)
Assay type: cell-based
Details: mouse, J774A.1 murine macrophages (ATCC TIB-67), murine macrophages J774A.1, 24 h, mean ± SD
REPORTED_ENDPOINT: CC50 at 24 h

- C[C@@H]1[C@H](O)[C@@H](C)/C=C/C=C/C=C/C=C/C=C/C=C/C=C/[C@H](O[C@@H]2O[C@H](C)[C@@H](O)[C@H](N)[C@@H]2O)C[C@@H]2O[C@](O)(C[C@@H](O)C[C@@H](O)[C@H](O)CC[C@@H](O)C[C@@H](O)CC(=O)O[C@H]1C)C[C@H](O)[C@H]2C(=O)O [Amphotericin B, amphotericin B, reference compound]: > 200 µM
- COc1c(C)cc(O)cc1CC/C(C)=C/C(=O)/C=C(\C)CCC[C@@H](C)C(=O)/C=C/C(C)(C)O [Gongolarone C (5), gongolarone C]: > 400 µM

For record COc1c(C)cc(O)cc1C/C=C(\C)CC(=O)/C=C(\C)CCC[C@@H](C)[C@H]1C[C@@H](O)C(C)(C)O1 [Gongolarone A (4), gongolarone A] the listed CC50 at 24 h is > 400 µM
